# assayed-system: NLRP3 (Homo sapiens, UniProt Q96P20)
# Construct: Seed THP-1 cells (25,000 cells/well) containing 1.0 μg/ml LPS in 40 μl of RPMI medium
# Sequence (Q96P20 whole entry): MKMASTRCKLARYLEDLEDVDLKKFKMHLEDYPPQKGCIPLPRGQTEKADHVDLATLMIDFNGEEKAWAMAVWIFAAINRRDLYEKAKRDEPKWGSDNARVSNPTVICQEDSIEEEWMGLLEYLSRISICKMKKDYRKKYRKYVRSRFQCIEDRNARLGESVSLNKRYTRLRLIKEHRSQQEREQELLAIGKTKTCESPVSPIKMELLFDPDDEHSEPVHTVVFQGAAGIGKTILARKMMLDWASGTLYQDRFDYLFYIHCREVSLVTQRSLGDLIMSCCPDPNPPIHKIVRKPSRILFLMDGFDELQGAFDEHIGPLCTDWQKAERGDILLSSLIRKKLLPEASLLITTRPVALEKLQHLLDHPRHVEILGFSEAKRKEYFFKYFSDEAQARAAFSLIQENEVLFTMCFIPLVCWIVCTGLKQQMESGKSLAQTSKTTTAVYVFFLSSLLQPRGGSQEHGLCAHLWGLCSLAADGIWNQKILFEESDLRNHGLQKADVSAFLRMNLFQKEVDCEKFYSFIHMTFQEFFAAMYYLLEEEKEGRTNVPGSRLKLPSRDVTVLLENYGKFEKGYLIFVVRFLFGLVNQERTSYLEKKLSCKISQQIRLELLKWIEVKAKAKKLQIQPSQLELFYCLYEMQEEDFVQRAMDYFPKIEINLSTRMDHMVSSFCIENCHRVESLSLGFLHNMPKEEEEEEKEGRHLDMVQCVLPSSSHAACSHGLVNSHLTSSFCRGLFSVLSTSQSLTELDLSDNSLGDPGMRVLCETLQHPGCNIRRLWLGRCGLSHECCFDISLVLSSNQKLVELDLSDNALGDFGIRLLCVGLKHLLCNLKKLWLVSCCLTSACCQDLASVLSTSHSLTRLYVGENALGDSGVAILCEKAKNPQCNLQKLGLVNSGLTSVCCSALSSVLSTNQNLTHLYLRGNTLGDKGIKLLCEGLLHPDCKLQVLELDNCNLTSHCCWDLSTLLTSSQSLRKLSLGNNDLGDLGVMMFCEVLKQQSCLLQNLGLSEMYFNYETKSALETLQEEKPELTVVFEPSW
# protocol-summary: THP-1 Cells Pyroptosis Assay
# condition-set: THP-1 cells with 1.0 μg/ml LPS; compound 3 hours; nigericin 5 μM 1 hr; resazurin readout
pIC50: −log10 of the molar value.
attribute-measured: pIC50

• Cc1ccc(C#N)c(O)c1-c1ccc2oc(N[C@@H]3CCCN(C)C3)nc2n1 [Example 82] = 6.89
• Cc1cc(C(F)(F)F)cc(O)c1-c1ccc2oc(NC3CCOC3)nc2n1 (racemic) [Example 38] = 7.07
• Cc1cc(Cl)cc(O)c1-c1ccc2oc(NCc3ncc[nH]3)nc2n1 [Example 76] = 6.84
• CCN1CCC[C@@H](Nc2nc3nc(-c4c(O)cc(Cl)cc4Cl)ccc3o2)C1 [Example 132] = 9.15
